EC50 reference
Molecular target: T1, cynomolgus monkey Nectin-4 protein (cynomolgus monkey)
T1 construct: also called cynomolgus monkey Nectin-4 antigen
Test: ELISA, coated antigen
Excerpt: The affinity of anti-human Nectin-4 humanized monoclonal antibodies to Nectin-4 protein of different species was detected by ELISA.
The answer is to be given in ng/mL; state only the numeric part.

binder | endpoint | units | measured
anti-human Nectin-4 humanized monoclonal antibody 31HZ (antibody, human IgG1, kappa, V domains shown, Human IgG1 heavy chain constant region, human kappa light chain constant region; expressed in CHO-E cells) VH: QVQLVQSGAEVKKPGSSVKVSCKASGYTFTDYWMNWVRLAPGQGLEWIGMIHPSDSETRLNQKFQGRVTLTVDKSTSTAYMELSSLRSEDTAVYYCARWDFRIYYAMDYWGQGTLVTVSS VL: DVVITQSPDSLAVSLGERATINCKSSQSLLNTNSQKNYLAWYQQKPGQSPKLLVYFASTRESGVPDRFSGSGSGTDFTLTISSLQAEDVAVYFCQQHYSTPLTFGGGTKVEIKR | EC50 | ng/mL | 4.45
anti-human Nectin-4 humanized monoclonal antibody 74HZ (antibody, human IgG1, kappa, V domains shown, Human IgG1 heavy chain constant region, human kappa light chain constant region; expressed in CHO-E cells) VH: QVQLVQSGAEVKKPGSSVKVSCKASGYTFINYWMNWVRQAPGQGLEWIGMIHPSDSATRLNQSFQGRVTLTVDKSTSTAYMELSSLRSEDTAVYYCARWGNFYTVNAWYYFDYWGQGTLVTVSS VL: DIVITQSPDSLAVSLGERATINCKSSQTLLNSNTQKNYLAWYQQKPGQSPKLLFYFASTRESGVPDRFSGSGSGTDFTLTISSLQAEDVAVYFCQQHYSTPLTFGQGTKLEIKR | EC50 | ng/mL | 6.73
Enfortumab (antibody, V domains shown) VH: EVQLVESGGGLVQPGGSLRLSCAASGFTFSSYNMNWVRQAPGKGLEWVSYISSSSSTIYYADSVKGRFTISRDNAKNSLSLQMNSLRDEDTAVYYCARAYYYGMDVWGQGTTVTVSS VL: DIQMTQSPSSVSASVGDRVTITCRASQGISGWLAWYQQKPGKAPKFLIYAASTLQSGVPSRFSGSGSGTDFTLTISSLQPEDFATYYCQQANSFPPTFGGGTKVEIKR | EC50 | ng/mL | 6

Below: the item to evaluate.
[Q] Would you kindly share the measured EC50 for anti-human Nectin-4 humanized monoclonal antibody 56HZ (antibody, human IgG1, kappa, V domains shown, Human IgG1 heavy chain constant region, human kappa light chain constant region; expressed in CHO-E cells) VH: QVQLQESGPGLVKPSQTLSLTCTVSGYFNSITSDYDWHWIRHHPGKGLEWMGYISFSGRTYYNPSLKSRVTISHDTSKNQFSLKLSSVTAADTAVYYCARGNYDGFDYWGQGTLVTVSS VL: DIVLTQSPATLSLSPGERATLSCRASQNIGTSIHWYQHKPGQSPRLLIKFASESISGIPARFSGSGSGTDFTLTISSLEPEDFAVYYCQQSKSWPTYTFGGGTKVEIKR ?
[A] 9.85

Values were extracted from patent US20240228612A1.
